Target: FHIT truncation TR1 (Homo sapiens, UniProt P49789)
Test: Cellular MST assay, GFP tagged FHIT truncation TR1
readout.type: Kd (µM)
State just the number; it will be interpreted in µM.

Ask | For the compound Cc1c(S(=O)(=O)O)oc2c1C(=O)C(=O)c1c-2ccc2c1CCCC2(C)C [STS, Sodium tanshinone IIA sulfonate] , report Kd.
Reply | 75.1

###

Target protein (sequence): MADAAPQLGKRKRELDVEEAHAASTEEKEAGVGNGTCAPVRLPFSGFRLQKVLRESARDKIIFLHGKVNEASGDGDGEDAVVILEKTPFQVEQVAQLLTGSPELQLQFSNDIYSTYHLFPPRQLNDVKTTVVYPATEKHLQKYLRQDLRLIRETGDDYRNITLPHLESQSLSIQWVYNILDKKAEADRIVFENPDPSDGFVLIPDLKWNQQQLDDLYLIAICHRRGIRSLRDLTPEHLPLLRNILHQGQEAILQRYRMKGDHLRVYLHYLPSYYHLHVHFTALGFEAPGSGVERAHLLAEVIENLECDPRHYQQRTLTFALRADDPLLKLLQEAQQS
readout.type: Kd (µM)
Numeric answer only, unit µM assumed.

Ask | Consider the compound Cc1c(S(=O)(=O)O)oc2c1C(=O)C(=O)c1c-2ccc2c1CCCC2(C)C [STS, Sodium tanshinone IIA sulfonate] and give its recorded Kd.
Reply | 9.31

###

Biological target: FHIT (Homo sapiens, UniProt P49789)
Construct: GST (N, cleaved yes); made in house; host or cells: E. coli BL21 (DE3)
Sequence (P49789 whole entry): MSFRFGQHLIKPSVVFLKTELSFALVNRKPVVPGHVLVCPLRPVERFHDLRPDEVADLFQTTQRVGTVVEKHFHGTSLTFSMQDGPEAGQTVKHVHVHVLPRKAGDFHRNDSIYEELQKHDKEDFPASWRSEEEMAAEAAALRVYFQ
Assay: Cellular MST assay, HEK293T cell lysate containing GFP tagged FHIT
Assay type: binding
Conditions: GFP-FHIT in HEK293T cell lysate, 25 °C
readout.type: Kd (nM)
Give the value, in units of nM, as a plain number.

Ask | Output measured Kd for this item: Cc1c(S(=O)(=O)O)oc2c1C(=O)C(=O)c1c-2ccc2c1CCCC2(C)C [STS, Sodium tanshinone IIA sulfonate]
Reply | 268
